Listed molecules paired with reported percent inhibition of viability
tested on: DERL-7 (IL-2 2.5 ng/mL); test: percent inhibition of viability; higher = more inhibition; conditions: 72 h; 0.1 nM
Kindly answer with a numeric value in %, unit omitted.

Examples with their reported percent inhibition of viability follow.
>>> result("O=C(Nc1c[nH]nc1-c1nc2ccc(CN3CCOCC3)cc2[nH]1)NC1CC1 [AT9283] (max concentration tested 1000 nM)")
0.91
>>> result("COc1cc2c(Oc3ccc(NC(=O)C4(C(=O)Nc5ccc(F)cc5)CC4)cc3F)ccnc2cc1OCCCN1CCOCC1 [Foretinib] (max concentration tested 1000 nM)")
3.24
>>> result("CON(C)C(=O)N1N=C(c2cc(F)ccc2F)S[C@@]1(CCCN)c1ccccc1 [ARRY-520] (max concentration tested 1000 nM)")
-10.8

response.value for C[C@@H](Oc1cc(-c2cnn(C3CCNCC3)c2)cnc1N)c1c(Cl)ccc(F)c1Cl [Crizotinib] (max concentration tested 1000 nM) (field: percent inhibition of viability) = -0.63

COc1cc2c(N3CCN(C(=O)Nc4ccc(OC(C)C)cc4)CC3)ncnc2cc1OCCCN1CCCCC1 [Tandutinib] (max concentration tested 1000 nM) yielded percent inhibition of viability of 6.14

The molecule COc1cc2nccc(Oc3ccc(NC(=O)C4(C(=O)Nc5ccc(F)cc5)CC4)cc3)c2cc1OC [Cabozantinib] (max concentration tested 1000 nM) showed percent inhibition of viability equal to 4.09

====

system: normal primary NK cells, pool 1 (3 donors), resting (IL-2 0 ng/mL); test: relative IC50 (inflection point of fitted viability curve, relative to fitted max inhibition); higher = less sensitive; conditions: 72 h
Overview of reported relative IC50 across a group of molecules:
Number only, in nM; omit the unit.

Previously resolved entries follow.
>>> result("O=C(O)c1ccc2c(c1)nc(Nc1cccc(Cl)c1)c1ccncc12 [Silmitasertib]")
3780
>>> result("Cc1cc(Nc2ncc(Cl)c(Nc3ccccc3S(=O)(=O)C(C)C)n2)c(OC(C)C)cc1C1CCNCC1 [Ceritinib]")
464
>>> result("CC[C@@]1(O)C(=O)OCc2c1cc1n(c2=O)Cc2cc3c(CN(C)C)c(O)ccc3nc2-1 [Topotecan]")
2880

Moving on to another molecule below.
Notebook: COc1ccc(-c2cc3c(C)nc(N)nc3n([C@H]3CC[C@H](OCCO)CC3)c2=O)cn1 , relative IC50 read as 514

====

tested on: KAI3 (IL-2 2.5 ng/mL); assay: percent inhibition of viability; higher = more inhibition; conditions: 72 h; 1 nM
recorded-endpoint: percent inhibition of viability
Please give the number followed by its unit.

Some solved entries appear below for comparison.
>>> result("COc1ccccc1S(=O)(=O)Nc1ccc2c(c1)CN(C)C(=O)N2 [PFI-1] (max concentration tested 10000 nM)")
"-2.2%"
>>> result("CC[C@@H]1C(=O)N(C)c2cnc(Nc3ccc(C(=O)N[C@H]4CC[C@H](N5CCN(CC6CC6)CC5)CC4)cc3OC)nc2N1C(C)C [Volasertib] (max concentration tested 1000 nM)")
"2.62%"
>>> result("CC(C)(C#N)c1cc(Cn2cncn2)cc(C(C)(C)C#N)c1 [Anastrozole] (max concentration tested 10000 nM)")
"4.34%"
>>> result("O=C(O)c1ccc2c(c1)nc(Nc1cccc(Cl)c1)c1ccncc12 [Silmitasertib] (max concentration tested 10000 nM)")
"4.28%"
>>> result("COc1cc2c(Oc3ccc(NC(=O)C4(C(=O)Nc5ccc(F)cc5)CC4)cc3F)ccnc2cc1OCCCN1CCOCC1 [Foretinib] (max concentration tested 1000 nM)")
"-0.1%"

// O=C(NC1CCNCC1)c1n[nH]cc1NC(=O)c1c(Cl)cccc1Cl [AT7519] (max concentration tested 10000 nM) : percent inhibition of viability value = 1.05%

Lab note: measured percent inhibition of viability of c1ccc([C@H]2CN3CCSC3=N2)cc1 [Levamisole] (max concentration tested 10000 nM) was -7.01%

====

As shown below, each of these compounds has a reported percent inhibition of viability value.
system: SNK-6 (IL-2 2.5 ng/mL); assay: percent inhibition of viability; higher = more inhibition; settings: 72 h; 2500 nM
The figure you give is taken to be in %; do not add the unit.

Lab note: compound Nc1nc(NC2CC2)cc(-c2cccc(Cl)c2Cl)n1 [TH588] (max concentration tested 25000 nM) tested on SNK-6 (IL-2 2.5 ng/mL); recorded percent inhibition of viability was 71.7

====

system: DERL-7 (IL-2 2.5 ng/mL); assay: percent inhibition of viability; higher = more inhibition; settings: 72 h; 1 nM
recorded-endpoint: percent inhibition of viability (%)
// return numeric value only (unit: %, not printed)

>>> result("CCN(c1cc(-c2ccc(CN3CCOCC3)cc2)cc(C(=O)NCc2c(C)cc(C)[nH]c2=O)c1C)C1CCOCC1 [E7438] (max concentration tested 10000 nM)")
7.34

response.value for CNNCc1ccc(C(=O)NC(C)C)cc1 [Procarbazine] (max concentration tested 10000 nM) (field: percent inhibition of viability) = -5.96

For record C[C@@H]1CN(Cc2ccc(F)cc2)[C@@H](C)CN1C(=O)c1cc2c(C(=O)C(=O)N(C)C)cn(C)c2cc1Cl [Talmapimod] (max concentration tested 10000 nM) the listed percent inhibition of viability is -8.76

In plain terms, CC(C)C[C@H](NC(=O)[C@H](CCc1ccccc1)NC(=O)CN1CCOCC1)C(=O)N[C@@H](Cc1ccccc1)C(=O)N[C@@H](CC(C)C)C(=O)[C@@]1(C)CO1 [Carfilzomib] (max concentration tested 1000 nM) has a documented percent inhibition of viability of 55.2

The compound listed as COc1ccc(COc2cc3oc(=O)c4cc(C(C)O)ccc4c3cc2OC)cc1 (stereo unspecified) [Palomid-529] (max concentration tested 10000 nM) shows percent inhibition of viability equal to -6.43

Reported percent inhibition of viability for COc1ccc(-c2ccc3c(N4CCOC[C@@H]4C)nc(N4CCOC[C@@H]4C)nc3n2)cc1CO [AZD8055] (max concentration tested 10000 nM) was 0.54

====

system: IMC-1 (IL-2 20 ng/mL); test: percent inhibition of viability; higher = more inhibition; settings: 72 h; 1 nM
recorded-endpoint: percent inhibition of viability (%)
// return numeric value only (unit: %, not printed)

Recorded results for 2 molecules are shown here.
>>> result("Cc1nc(C(=O)NCC(=O)O)c(O)c2ccc(Oc3ccccc3)cc12 [FG-4592] (max concentration tested 10000 nM)")
-3.51
>>> result("COc1cc2ncnc(Nc3ccc(F)c(Cl)c3)c2cc1NC(=O)/C=C/CN1CCCCC1 [Dacomitinib] (max concentration tested 1000 nM)")
7.6

Item: CC(C)(C#N)c1cc(Cn2cncn2)cc(C(C)(C)C#N)c1 [Anastrozole] (max concentration tested 10000 nM) | percent inhibition of viability: -2.19

Kindly note the recorded percent inhibition of viability for CCNC(=O)c1noc(-c2cc(C(C)C)c(O)cc2O)c1-c1ccc(CN2CCOCC2)cc1 [Luminespib] (max concentration tested 1000 nM) , which is -3.7

Lab note: measured percent inhibition of viability of CC(=O)[C@]1(O)Cc2c(O)c3c(c(O)c2[C@@H](O[C@H]2C[C@H](N)[C@H](O)[C@H](C)O2)C1)C(=O)c1ccccc1C3=O [Idarubicin] (max concentration tested 1000 nM) was -4.02

Cc1ccc(C(=O)N(CCCN)[C@@H](c2oc3cc(Cl)ccc3c(=O)c2Cc2ccccc2)C(C)C)cc1 (max concentration tested 100 nM) has a reported percent inhibition of viability of 0.06

percent inhibition of viability reported for this molecule CC(=O)Nc1ccc(C(=O)Nc2ccccc2N)cc1 [Tacedinaline] (max concentration tested 1000 nM) : -4.64

Record summary for C[C@@H](Oc1cc(-c2cnn(C3CCNCC3)c2)cnc1N)c1c(Cl)ccc(F)c1Cl [Crizotinib] (max concentration tested 1000 nM) : reported percent inhibition of viability = -8.42

The molecule O=C(NOCC1CC1)c1ccc(F)c(F)c1Nc1ccc(I)cc1Cl (max concentration tested 10000 nM) showed percent inhibition of viability equal to 2.83

====

Catalogue of compounds with associated percent inhibition of viability
tested on: normal NK cells expanded with K562-aAPC; experiment: percent inhibition of viability; higher = more inhibition; conditions: 72 h; IL-2 2.5 ng/mL; 100 nM
Express it in %; write the number only.

# count of solved cases: 10
>>> result("CNC(=O)c1ccc(C)c(-n2c(C)cc(OCc3ccc(F)cc3F)c(Br)c2=O)c1 (max concentration tested 1000 nM)")
-3.39
>>> result("O=C(NOCC1CC1)c1ccc(F)c(F)c1Nc1ccc(I)cc1Cl (max concentration tested 10000 nM)")
-0.04
>>> result("CC(C)(C)Cn1c(N)nc2ccc(-c3[nH]c(C(C)(C)C)nc3-c3ccc(F)cc3)nc21 [Ralimetinib] (max concentration tested 10000 nM)")
-1.53
>>> result("O=C(NOC[C@H](O)CO)c1ccc(F)c(F)c1Nc1ccc(I)cc1F (max concentration tested 1000 nM)")
-9.26
>>> result("Cn1cc(CNCC2CCN(c3ncc(C(=O)NO)cn3)CC2)c2ccccc21 [Quisinostat] (max concentration tested 1000 nM)")
98.9
>>> result("CO[C@@]12[C@H](COC(N)=O)C3=C(C(=O)C(C)=C(N)C3=O)N1C[C@@H]1N[C@@H]12 [Mitomycin C] (max concentration tested 10000 nM)")
-6.31
>>> result("Cc1cc(OCc2nnc(SC3CCCC3)n2-c2cccnc2)ccc1-c1ccc(S(C)(=O)=O)cc1 [NMS-873] (max concentration tested 10000 nM)")
5.95
>>> result("Cc1cc(Nc2cc(N3CCN(C)CC3)nc(/C=C/c3ccccc3)n2)n[nH]1 [ENMD-2076] (max concentration tested 10000 nM)")
7
>>> result("Cc1ncc(-c2ccnc(Nc3ccc(S(C)(=O)=O)cc3)n2)n1C(C)C [AZD-5438] (max concentration tested 10000 nM)")
-5.24
>>> result("COc1ccccc1S(=O)(=O)Nc1ccc2c(c1)CN(C)C(=O)N2 [PFI-1] (max concentration tested 10000 nM)")
0.83

Entry Cc1cn(-c2cc(NC(=O)c3ccc(C)c(Nc4nccc(-c5cccnc5)n4)c3)cc(C(F)(F)F)c2)cn1 [Nilotinib] (max concentration tested 10000 nM) ; percent inhibition of viability = -3.71

// recorded percent inhibition of viability for COc1ccc(-c2ccc3c(N4CCOC[C@@H]4C)nc(N4CCOC[C@@H]4C)nc3n2)cc1CO [AZD8055] (max concentration tested 10000 nM) : 29.3

# compound Cc1cc(Nc2cc(N3CCN(C)CC3)nc(Sc3ccc(NC(=O)C4CC4)cc3)n2)n[nH]1 [Tozasertib] (max concentration tested 10000 nM) ; its percent inhibition of viability = 27.1
